This collection of values is drawn from paper PMC11201866.

# MRT listing for each entry below
experiment: Pharmacokinetic study in rat plasma using HPLC; assay type: in vivo, albino Wistar rats; settings: Wistar, po; rat plasma, 10 mg/kg p.o.
measured-endpoint: MRT (h)

> print(dat)
                                   compound  measured.endpoint   val
1  COc1ccc2c(c1)CC1=C2N=C2SC=CN2C1c1cc(OC)c(OC)c(OC)c1 (centres unmarked)                MRT  10.6
2  Clc1ccc(C2C3=C(N=C4SC=CN42)c2ccccc2C3)cc1 (centres unmarked) [Compound 12B]                MRT  10.4
